test: qHTS assay to identify small molecule agonists of the endoplasmic reticulum stress response signaling pathway (AID 1159516); details: ESRE-bla HeLa, ER stress beta-lactamase reporter, 5 h; series mostly up to 61 µM; further: on the % scale 0 is the no-effect control and ±100 the full control effect
Inconclusive results are not listed. The source made the active and inactive calls. The call rests on the fitted dose curve; in most records, active means well fitted activation curve with a large enough effect in the signal ratio in the repeat runs (not every such curve was filed as active); inconclusive means weak or mixed curves, or effect the other way; inactive means flat fitted curve, though single readings scatter; the % refers to the signal ratio.
observation-type: activation

compound="CC(C(=O)O)c1ccc(CC2CCCC2=O)cc1 (centres undefined)" result=inactive
compound=O=C[C@H](O)[C@@H](O)[C@H](O)[C@H](O)CO result=inactive
compound=CC(=O)Nc1c(I)cc(I)c(C(=O)O)c1I result=inactive
compound=c1ccc([C@H]2CN3CCSC3=N2)cc1 result=inactive
compound="Cn1cc(S(C)=O)c(=O)c2ccc(F)cc21 (centres undefined)" result=inactive
compound=O=C(O)CCCc1ccccc1 result=inactive
compound=OCCCC1CCCCC1 result=inactive
compound=Cc1sccc1Br result=inactive
compound="NC(=O)COCCN1CCN(C(c2ccccc2)c2ccc(Cl)cc2)CC1 (centres undefined)" result=inactive
compound=O=c1cc(-c2ccccc2)oc2ccccc12 result=inactive
compound=COC(=O)[C@@H](N)Cc1ccc(O)c(O)c1 result=inactive
compound=ClC(Cl)(Br)Br result=inactive
compound=COC(=O)CCSCCC(=O)OC result=inactive
compound=O=S(O)CO result=inactive
compound="COCCc1ccc(OCC(O)CNC(C)C)cc1 (centres undefined)" result=inactive
compound=Cc1ccc(C#N)cc1 result=inactive
compound=CCSC(=O)N(CC(C)C)CC(C)C result=inactive
compound=O=C1NC(=O)[C@@]2(CCOc3ccc(F)cc32)N1 result=inactive
compound="OC1CCCCC1c1ccccc1 (centres undefined)" result=inactive
compound=CCCCC/C=C\CCC=O result=inactive
compound=CC(C)(O)C(=O)c1ccccc1 result=inactive
compound=NCCCNCCSP(=O)(O)O result="0.0202% [at 6.95 µM] (inactive)"
compound=CO/N=C(/C(=O)N[C@@H]1C(=O)N2C(C(=O)OCOC(=O)C(C)(C)C)=C(C)CS[C@H]12)c1csc(N)n1 result=inactive
compound=O=C(O)COc1nn(Cc2ccccc2)c2ccccc12 result=inactive
compound=CCCCNC(=O)NCCCC result=inactive
compound=CCCN1CCCC[C@H]1C(=O)Nc1c(C)cccc1C result=inactive
compound=Cc1cc(O)cc2c1O[C@](C)(CCC[C@H](C)CCC[C@H](C)CCCC(C)C)CC2 result=inactive
compound=CCOc1ccc(C(=O)OCCN(CC)CC)cc1 result=inactive
compound=NS(=O)(=O)c1cc(C(=O)O)cc(N2CCCC2)c1Oc1ccccc1 result=inactive

---

target: Cytochrome P450 2C19 (Homo sapiens); assay: Cytochrome P450 Family 2 Subfamily C Member 19 (CYP2C19) small molecule antagonists: luciferase reporter qHTS assay (AID 1671197); settings: P450-Glo CYP2C19 enzyme, luciferin luminescence, 1 h; series mostly up to 52.9 µM; further: nearly all actives have a fitted effect of over 65% in size
Records with an inconclusive call do not appear. The source made the active and inactive calls. Calls come from the whole dose curve; as a rule, active = well fitted inhibition curve with a large enough effect in the repeat runs; inconclusive = weak or mixed curves; inactive = no such curve, though single readings can be large or run the other way.
Possible outcomes: active, inactive

compound=Cc1cc(O)cc2c1O[C@](C)(CCC[C@H](C)CCC[C@H](C)CCCC(C)C)CC2 label_value=inactive
compound=NC(=O)c1cn(Cc2c(F)cccc2F)nn1 label_value=inactive
compound=c1cnc(N2CCN(Cc3ccc4c(c3)OCO4)CC2)nc1 label_value=active
compound=CCCCCCCCCCCCN(CCCCCCCCCCCC)CCCCCCCCCCCC label_value=inactive
compound=CCCN(CCC)CCc1cccc2c1CC(=O)N2 label_value=inactive
compound=CCCCOCCOCCOCCCC label_value=inactive
compound=CCCCC/C=C\CCC=O label_value=active
compound="CC(=O)N(CC(O)CO)c1c(I)c(C(=O)NCCO)c(I)c(C(=O)NCC(O)CO)c1I (stereo unspecified)" label_value=inactive
compound=C=C(C)C(=O)OCCCCCCCC(C)C label_value=active
compound=CCCCCCCCS(=O)(=O)Cl label_value=inactive
compound="CCO[Si](CCC1CCC2OC2C1)(OCC)OCC (stereo unspecified)" label_value=inactive
compound=CC1(C)CO[C@@H](CC(=O)O)CN1 label_value=inactive
compound=CCN(CC)CCOCCOC(=O)C1(c2ccccc2)CCCC1 label_value=inactive
compound=COC(=O)[C@@H](N)Cc1ccc(O)c(O)c1 label_value=inactive
compound="NC(CSCC(=O)O)C(=O)O (stereo unspecified)" label_value=inactive
compound=NS(=O)(=O)c1ccccc1Cl label_value=inactive
compound="CC(C)NCC(O)c1ccc(NS(C)(=O)=O)cc1 (stereo unspecified)" label_value=inactive
compound=C=CCOCC(CC)(CO)COCC=C label_value=active
compound=Nc1ccc(S(=O)(=O)Nc2ccnn2-c2ccccc2)cc1 label_value=inactive
compound=CN(C(=O)c1c(O)c2ccccc2n(C)c1=O)c1ccccc1 label_value=inactive
compound=O=c1n(CCO)c(=O)n(CCO)c(=O)n1CCO label_value=inactive
compound="CN1C(=O)N(C)C(O)C1O (stereo unspecified)" label_value=inactive
compound=O=C(CCCN1CCN(c2ccccn2)CC1)c1ccc(F)cc1 label_value=active
compound=CN1N=C(C(N)=O)CCC1=O label_value=inactive
compound=N=c1nc(N2CCCCC2)cc(N)n1O label_value=inactive
compound=C1CN(CCOCCN2CCOCC2)CCO1 label_value=inactive
compound=CCOC(=O)c1ccc(C)cc1 label_value=inactive
compound=CCOC(=O)Nc1ccc(NCc2ccc(F)cc2)nc1N label_value=active
compound=CCOC(=O)c1cccc(N)c1 label_value=inactive
compound=CCCC(=O)O[C@]1(C(=O)CO)CC[C@H]2[C@@H]3CCC4=CC(=O)CC[C@]4(C)[C@H]3[C@@H](O)C[C@@]21C label_value=inactive
compound=O=C[C@H](O)[C@@H](O)[C@H](O)[C@H](O)CO label_value=inactive
compound=C/C=C(\C)C#N label_value=active
compound=CC(=O)OCC(CCn1cnc2cnc(N)nc21)COC(C)=O label_value=inactive
compound=N=C(N)c1ccc(OCCCOc2ccc(C(=N)N)cc2)cc1 label_value=inactive
compound="COC(C)(C)CCCC(C)CC=O (stereo unspecified)" label_value=inactive
compound=OC[C@]1(O)OC[C@@H](O)[C@H](O)[C@@H]1O label_value=inactive
compound=CCC=O label_value=inactive
compound=CC(C)(C)c1ccc(O)c(O)c1 label_value=inactive
compound=O=C1NC(=O)[C@@]2(CCOc3ccc(F)cc32)N1 label_value=inactive
compound="OC1CCCCC1c1ccccc1 (stereo unspecified)" label_value=active
compound="C[N+](C)(C)CC(O)CC(=O)[O-] (stereo unspecified)" label_value=inactive
compound=CN(C)CCCNCCCN(C)C label_value=inactive
compound=CO[C@]12C[C@@H](COC(=O)c3cncc(Br)c3)CN(C)[C@@H]1Cc1cn(C)c3cccc2c13 label_value=active
compound=ClC(Cl)(Br)Br label_value=inactive
compound=CC(C)(C)NCCNC(C)(C)C label_value=active
compound=CCCCCSCCCCC label_value=inactive
compound="CCCCC(CC)COC(=O)c1ccccc1O (stereo unspecified)" label_value=inactive
compound=Cc1c(NC(C)C)c(=O)n(-c2ccccc2)n1C label_value=inactive
compound=O=C(O)COc1nn(Cc2ccccc2)c2ccccc12 label_value=inactive
compound=CC(C)(O)C#CC(C)(C)O label_value=inactive
compound=C=C1CC[C@H]2C[C@@H]1C2(C)C label_value=inactive
compound=COc1ccc2c(c1)c(CC(=O)OCC(=O)O)c(C)n2C(=O)c1ccc(Cl)cc1 label_value=inactive
compound="CCC(=O)OC(C)c1ccccc1 (stereo unspecified)" label_value=inactive
compound=Nc1nc2c(ncn2COC(CO)CO)c(=O)[nH]1 label_value=inactive
compound=O=[N+]([O-])c1ccc(F)cc1F label_value=inactive
compound=COc1ccc2c(c1)CCCC2=O label_value=inactive
